# protocol_notes: Repeat once-weekly IV dose toxicokinetics in dogs
# Format: in vivo
# recorded_conditions: female, dog, in vivo, iv, 0.9 mg/kg, dogs F, 0.9 mg/kg once-weekly IV, Day 13
# Description: Overall, drug concentrations increased with ascending dose, noting that the mean profiles at the two highest dose levels were overlapping. Systemic exposure (AUClast) to pafolacianine was approximately dose-proportional over the range of doses administered (0.9 to 13.9 mg/kg) and within the observed variability (Table 5). […] On both Day 0 and Day 13, CL was slow (relative to hepatic blood flow) and Vss was moderate. Mean T1/2 ranged from approximately 13 to 18 hours.
measurement_type: AUC(0-inf) (ng·h/mL)
Reply numerically in ng·h/mL, unit not repeated.

INPUT: Name the recorded AUC(0-inf) for CC1(C)C(=CC=C2CCCC(C=CC3=[N+](CCCCS(=O)(=O)[O-])c4ccc(S(=O)(=O)O)cc4C3(C)C)=C2Oc2ccc(CC(NC(=O)c3ccc(NCc4cnc5nc(N)[nH]c(=O)c5n4)cc3)C(=O)O)cc2)N(CCCCS(=O)(=O)O)c2ccc(S(=O)(=O)O)cc21 (stereo not shown) .
OUTPUT: 8420

====

# protocol_notes: Repeat once-weekly IV dose toxicokinetics in dogs
# Format: in vivo
# recorded_conditions: female, dog, in vivo, iv, 0.9 mg/kg, dogs F, 0.9 mg/kg once-weekly IV, Day 0
measurement_type: AUC(0-inf) (ng·h/mL)
// return numeric value only (unit: ng·h/mL, not printed)

INPUT: Fill blank: measured AUC(0-inf) of the compound CC1(C)C(=CC=C2CCCC(C=CC3=[N+](CCCCS(=O)(=O)[O-])c4ccc(S(=O)(=O)O)cc4C3(C)C)=C2Oc2ccc(CC(NC(=O)c3ccc(NCc4cnc5nc(N)[nH]c(=O)c5n4)cc3)C(=O)O)cc2)N(CCCCS(=O)(=O)O)c2ccc(S(=O)(=O)O)cc21 (stereo not shown) [pafolacianine] is ____.
OUTPUT: 10500

====

# protocol_notes: Repeat once-weekly IV dose toxicokinetics in rats
# Format: in vivo
# recorded_conditions: female, rat, in vivo, iv, 30.8 mg/kg, rats F, 30.8 mg/kg once-weekly IV, Day 13
measurement_type: clearance (mL/min/kg)
Write the value in mL/min/kg as a bare number.

INPUT: Item CC1(C)C(=CC=C2CCCC(C=CC3=[N+](CCCCS(=O)(=O)[O-])c4ccc(S(=O)(=O)O)cc4C3(C)C)=C2Oc2ccc(CC(NC(=O)c3ccc(NCc4cnc5nc(N)[nH]c(=O)c5n4)cc3)C(=O)O)cc2)N(CCCCS(=O)(=O)O)c2ccc(S(=O)(=O)O)cc21 (stereo not shown) [pafolacianine] has what recorded clearance?
OUTPUT: 1.77

====

# protocol_notes: Single IV dose toxicokinetics in dogs
# Type: in vivo
# recorded_conditions: dog, in vivo; male dogs, 13.9 mg/kg single IV, Study Day 0
measurement_type: AUC(0-t) (ng·h/mL)
Give your result in ng·h/mL as a bare value.

INPUT: # get_value(readout='AUC(0-t)', item= CC1(C)C(=CC=C2CCCC(C=CC3=[N+](CCCCS(=O)(=O)[O-])c4ccc(S(=O)(=O)O)cc4C3(C)C)=C2Oc2ccc(CC(NC(=O)c3ccc(NCc4cnc5nc(N)[nH]c(=O)c5n4)cc3)C(=O)O)cc2)N(CCCCS(=O)(=O)O)c2ccc(S(=O)(=O)O)cc21 (stereo not shown) [pafolacianine] )
OUTPUT: 42100

====

# protocol_notes: Repeat once-weekly IV dose toxicokinetics in dogs
# Assay type: in vivo
# recorded_conditions: female, dog, in vivo, iv, 0.9 mg/kg, dogs F, 0.9 mg/kg once-weekly IV, Day 13
measurement_type: AUC(0-t) (ng·h/mL)
Answer with a number only, understood to be in ng·h/mL.

INPUT: What AUC(0-t) value was documented for this compound, CC1(C)C(=CC=C2CCCC(C=CC3=[N+](CCCCS(=O)(=O)[O-])c4ccc(S(=O)(=O)O)cc4C3(C)C)=C2Oc2ccc(CC(NC(=O)c3ccc(NCc4cnc5nc(N)[nH]c(=O)c5n4)cc3)C(=O)O)cc2)N(CCCCS(=O)(=O)O)c2ccc(S(=O)(=O)O)cc21 (stereo not shown) [pafolacianine] ?
OUTPUT: 6630

====

# protocol_notes: Repeat once-weekly IV dose toxicokinetics in dogs
# Type: in vivo
# recorded_conditions: female, dog, in vivo, iv, 13.9 mg/kg, dogs F, 13.9 mg/kg once-weekly IV, Day 13
measurement_type: clearance (mL/min/kg)
Reply numerically in mL/min/kg, unit not repeated.

INPUT: Need clearance of CC1(C)C(=CC=C2CCCC(C=CC3=[N+](CCCCS(=O)(=O)[O-])c4ccc(S(=O)(=O)O)cc4C3(C)C)=C2Oc2ccc(CC(NC(=O)c3ccc(NCc4cnc5nc(N)[nH]c(=O)c5n4)cc3)C(=O)O)cc2)N(CCCCS(=O)(=O)O)c2ccc(S(=O)(=O)O)cc21 (stereo not shown) , thanks.
OUTPUT: 1.81

====

# protocol_notes: Single IV dose toxicokinetics in dogs
# Assay type: in vivo
# recorded_conditions: dog, in vivo; male dogs, 9.3 mg/kg single IV, Study Day 0
measurement_type: C0

INPUT: Data request, read-out C0, for CC1(C)C(=CC=C2CCCC(C=CC3=[N+](CCCCS(=O)(=O)[O-])c4ccc(S(=O)(=O)O)cc4C3(C)C)=C2Oc2ccc(CC(NC(=O)c3ccc(NCc4cnc5nc(N)[nH]c(=O)c5n4)cc3)C(=O)O)cc2)N(CCCCS(=O)(=O)O)c2ccc(S(=O)(=O)O)cc21 (stereo not shown) [pafolacianine]
OUTPUT: 58.5 µg/mL

====

# protocol_notes: Repeat once-weekly IV dose toxicokinetics in dogs
# Assay type: in vivo
# recorded_conditions: male, dog, in vivo, iv, 0.9 mg/kg, dogs M, 0.9 mg/kg once-weekly IV, Day 13; read-out: T1/2 (converted)
measurement_type: half-life
Please answer using a numeric value trailed by its unit.

INPUT: Would you mind telling me what half-life value was observed for CC1(C)C(=CC=C2CCCC(C=CC3=[N+](CCCCS(=O)(=O)[O-])c4ccc(S(=O)(=O)O)cc4C3(C)C)=C2Oc2ccc(CC(NC(=O)c3ccc(NCc4cnc5nc(N)[nH]c(=O)c5n4)cc3)C(=O)O)cc2)N(CCCCS(=O)(=O)O)c2ccc(S(=O)(=O)O)cc21 (stereo not shown) ?
OUTPUT: 17.6 h

====

# protocol_notes: Phase 1a pharmacokinetics in healthy volunteers, single IV administration
# Assay type: in vivo, human
# recorded_conditions: human, plasma, intravenous, 0.2 mg/kg, in 220 ml 5% dextrose, 60-min infusion; read-out: T1/2 (converted)
measurement_type: half-life (h)
Just the number in h, nothing appended.

INPUT: What does the data say about its half-life? Entry: CC1(C)C(=CC=C2CCCC(C=CC3=[N+](CCCCS(=O)(=O)[O-])c4ccc(S(=O)(=O)O)cc4C3(C)C)=C2Oc2ccc(CC(NC(=O)c3ccc(NCc4cnc5nc(N)[nH]c(=O)c5n4)cc3)C(=O)O)cc2)N(CCCCS(=O)(=O)O)c2ccc(S(=O)(=O)O)cc21 (stereo not shown)
OUTPUT: 2.66

====

# protocol_notes: Phase 1a pharmacokinetics in healthy volunteers, single IV administration
# Type: in vivo, human
# recorded_conditions: human, plasma, intravenous, 0.2 mg/kg, with pre-treatment of antihistamine (clemastine)
measurement_type: AUC(0-t) (µg·h/mL)
Response body: numeric value in µg·h/mL, unit text excluded.

INPUT: Field request: AUC(0-t) | item: CC1(C)C(=CC=C2CCCC(C=CC3=[N+](CCCCS(=O)(=O)[O-])c4ccc(S(=O)(=O)O)cc4C3(C)C)=C2Oc2ccc(CC(NC(=O)c3ccc(NCc4cnc5nc(N)[nH]c(=O)c5n4)cc3)C(=O)O)cc2)N(CCCCS(=O)(=O)O)c2ccc(S(=O)(=O)O)cc21 (stereo not shown)
OUTPUT: 1.4

====

# protocol_notes: Repeat once-weekly IV dose toxicokinetics in rats
# Type: in vivo
# recorded_conditions: male, rat, in vivo, iv, 46.3 mg/kg, rats M, 46.3 mg/kg once-weekly IV, Day 0
measurement_type: AUC(0-inf) (µg·h/mL)
The reply should contain only the number, in µg·h/mL.

INPUT: Consider the molecule shown here: CC1(C)C(=CC=C2CCCC(C=CC3=[N+](CCCCS(=O)(=O)[O-])c4ccc(S(=O)(=O)O)cc4C3(C)C)=C2Oc2ccc(CC(NC(=O)c3ccc(NCc4cnc5nc(N)[nH]c(=O)c5n4)cc3)C(=O)O)cc2)N(CCCCS(=O)(=O)O)c2ccc(S(=O)(=O)O)cc21 (stereo not shown) What is its recorded AUC(0-inf)?
OUTPUT: 342

====

# protocol_notes: Repeat once-weekly IV dose toxicokinetics in rats
# Assay type: in vivo
# recorded_conditions: male, rat, in vivo, iv, 3.1 mg/kg, rats M, 3.1 mg/kg once-weekly IV, Day 0
measurement_type: clearance (mL/min/kg)
Report only the number, with the unit mL/min/kg understood.

INPUT: # input compound: CC1(C)C(=CC=C2CCCC(C=CC3=[N+](CCCCS(=O)(=O)[O-])c4ccc(S(=O)(=O)O)cc4C3(C)C)=C2Oc2ccc(CC(NC(=O)c3ccc(NCc4cnc5nc(N)[nH]c(=O)c5n4)cc3)C(=O)O)cc2)N(CCCCS(=O)(=O)O)c2ccc(S(=O)(=O)O)cc21 (stereo not shown) [pafolacianine] ; wanted: its clearance
OUTPUT: 2.68
